These data points were gathered from patent US20220267440A1.

# experimental.system: T1, recombinant CD47-Fc (Sino Biologics) (human, UniProt Q08722 19-139)
# T1 construct: Bought reagent; also called human CD47-Fc; not shown: Fc
# test.details: competition ELISA: HIS-tagged SIRP α binding to plate-bound CD47-Fc, antibody titrated
measurement.name: pIC50
Please treat pIC50 as minus the base-10 logarithm of the molar concentration.

>>> reported_result("anti-CD47 AlivaMab antibody 85 (antibody, IgG1, V domains shown, Chimeric AlivaMab Mouse mAb from hybridoma: human V, CH1 and upper hinge, mouse middle hinge, CH2 and CH3, human kappa light chain; also called clone 85; mAb 85) VH: QVQLQESGPGLVKASETLSLTCTVSGGSISGYYWSWIRQPAGKGLEWIGRIYNSGSTNYNPSLKSRVTMSVDTSKNQFSLKLSSVTAADTAVYYCARQTYLDYWGQGTLVTVSS VL: DIQMTQSPSAMSASVGDRVTITCRASQGISIYLAWFQQKPGKVPKRLIYAASSLQSGVPSRFSGSGSGTEFTLTISSLQPEDFATYYCLQHNSYPLTFGGGTKVEIK")
8.31

(Q) Would you kindly share the measured pIC50 for anti-CD47 AlivaMab antibody 164 (antibody, IgG1, V domains shown, Chimeric AlivaMab Mouse mAb from hybridoma: human V, CH1 and upper hinge, mouse middle hinge, CH2 and CH3, human kappa light chain; also called clone 164; mAb 164) VH: QVQLQESGPGLVKPSETLSLTCTVSGGSISSYYWSWIRQPPGKGLEWIGYVYYSGGTNYNPSLKSRVTISVDTSKNQFSLKLSSVTAADTAVYYCARKRGTFDYWGQGTLVTVSS VL: DIQMTQSPSSVSASVGDRVTITCRASQGISSWLAWYQQKPGKAPKLLIYAASSLQSGVPSRFSGSGSGTDFTLTISSLQPEDFATYFCQQANSFPLTFGGGTKVEIK ?
(A) 8.32

(Q) Would you kindly share the measured pIC50 for anti-CD47 AlivaMab antibody 107 (antibody, IgG1, V domains shown, Chimeric AlivaMab Mouse mAb from hybridoma: human V, CH1 and upper hinge, mouse middle hinge, CH2 and CH3, human kappa light chain) VH: QVQLQESGPGLMKPSETLSLTCTVSGGSISSYYWTWIRQPPGKGLEWIGYIYYSGSTNYNPSLKSRVTISVDTSKNQFSLKLSSVTAADTAVYYCARGRGALTAWGQGTLVTVSS VL: DIQLTQSPSFLSASVGDRVTITCRASQDIGSYLAWCQQKPGKAPKLLIYAASTLQGGVPSRFSGSGSGTEFTLTISSLQPEDFATYYCQQLNSYPLTFGGGTKVEIK ?
(A) 8.57

(Q) Would you kindly share the measured pIC50 for anti-CD47 AlivaMab antibody 161 (antibody, IgG1, V domains shown, Chimeric AlivaMab Mouse mAb from hybridoma: human V, CH1 and upper hinge, mouse middle hinge, CH2 and CH3, human kappa light chain; also called clone 161; mAb 161) VH: QVQLQESGPGLVKPSETLSLTCTVSGGSISSYYWSWIRQPPGKGLEWIGYIYYSGSTNYNPSLKSRVTISVDTSKNQFSLKLSSVTAADTAVYYCARSRYFDLWGRGTLVTVSS VL: DIQMTQSPSAMSTSVGDRVTITCRASQGISNFLAWFQQKPGKVPKRLIYAASSLQSGVPSRFSGSGSGTEFTLTISSLQPEDFATYYCLQHNSYPYTFGQGTKLEIK ?
(A) 8.52
